B1: ANKRD40 (parent)
chain: YQELLRVCCCELGVNPDQVEKIRK

Variants of: B1
Assay: protein stability index of a GFP-peptide fusion (GPS, HEK-293T) (PSI 1-6); higher = more stable;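 further: lentivirally expressed fusions sorted by FACS into six bins by GFP to DsRed ratio, PSI derived from sequencing read proportions per bin multiplied by bin number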
Details: c terminus: a fixed tail appended
REPORTED METRIC: protein stability index
Give the figure by itself; no unit, no explanation.

# example entries with known answers
V7Y :: 1.79
E3A :: 1.52
E11H :: 1.79

Value lookup for protein stability index; key = Q18T
2.16

Value lookup for protein stability index; key = L5Q
3.04

Value lookup for protein stability index; key = D17V
2.73

Value lookup for protein stability index; key = C9I
1.06

Value lookup for protein stability index; key = C9G
3.22

These entries and their values trace back to the supplement of paper PMC10567573.
